Source: a melting point compilation (Tetko et al.; mined from patent text by program, amines drawn as free bases though some values may be those of a salt)

Would you mind telling me the reported melting point of each entry?

A selection of reference data follows.
[[record]]
compound = "COc1cc(Br)c(OC)c(CO)c1"
parameter = "melting point"
reported_measurement = "59 to 60 °C"

[[record]]
compound = "COC(=O)c1cn(-c2ccccc2Oc2ccc(C)cc2O)nn1"
parameter = "melting point"
reported_measurement = "153 to 155 °C"

[[record]]
compound = "O=C(Cc1cccc(O)c1)NNC(=O)c1c(O)cc(O)cc1Cl"
parameter = "melting point"
reported_measurement = "217 °C"


Batch: melting point for all items listed.
1. NC(=S)Nc1cc2ccccc2cn1
2. Cc1ccc2c(c1)c1c(n2Cc2ccccc2)CCCC1=O
3. CCOC(=O)c1ccc(-c2csc(-c3ccccc3)n2)cc1

1: 225 to 227 °C; 2: 179 to 180 °C; 3: 72 to 73 °C

----------
parameter: melting point

[[record]]
compound = "CCOC(=O)c1cccc(NC(=O)C(CSC(C)=O)Cc2ccccc2)c1 (stereo not given)"
reported_measurement = "89 to 92 °C"

[[record]]
compound = "CN1C(=O)CN(C(=O)NC2C3CC4CC(C3)CC2C4)C(c2ccccc2)c2ccccc21 (racemic)"
reported_measurement = "243 to 244 °C"

[[record]]
compound = "CC(C)c1cccc(C(C)C)c1OC(=O)CCC(=O)O"
reported_measurement = "101 to 102 °C"

[[record]]
compound = "C=CCN1C(C)(C)CC(O)CC1(C)C"
reported_measurement = "84 to 85 °C"


Consider the additional compound presented here.
GET /values?readout=melting point&item= OC(c1ccccc1)C1CCN(CCCN(c2ccccc2)c2ccccc2)CC1 (stereo not given)
129 to 130 °C

----------
parameter: melting point

[[record]]
molecule = "Cc1ccc(-c2ccc(S(C)(=O)=O)cc2)n1-c1ccc(-c2ccc[nH]2)cc1"
reported_measurement = "225 to 227 °C"


Batch: melting point for all items listed.
1. CC(=O)C(CSC(=S)N(C)C)=C(C)O
2. Oc1nc2ccc3nsnc3c2nc1O
3. COc1ccc(-c2[nH]nc3c2C(=O)c2c(NC(=O)CN4CCC(O)CC4)cccc2-3)cc1
4. O=C(O)c1cccc(NC(=O)C(CS)Cc2ccccc2)c1 (stereo unspecified)
5. Cc1ccccc1NNC1=NCCS1

1. 70 to 72 °C
2. > 300 °C
3. > 300 °C
4. 178 to 180 °C
5. 126 to 127 °C

----------
Would you mind telling me the reported melting point of each entry?

A selection of reference data follows.
[[record]]
molecule = "CN1CCN(C(=O)c2ccc3c([N+](=O)[O-])c(O)c(O)cc3c2)CC1"
reported_measurement = "> 360 °C"

[[record]]
molecule = "CCOC(=O)C(=O)Nc1c([N+](=O)[O-])sc2ccc([N+](=O)[O-])cc12"
reported_measurement = "178 to 183 °C"

[[record]]
molecule = "Cc1ccc(C)n1S(=O)(=O)c1ccc(CC(=O)c2ccccc2)cc1"
reported_measurement = "94.6 to 98.8 °C"

[[record]]
molecule = "CCCCc1oc2ccc([N+](=O)[O-])cc2c1S(=O)(=O)c1ccc(OCCCBr)cc1"
reported_measurement = "101 °C"

[[record]]
molecule = "CCCCOCCCn1c(CCCC)nc2cnc3cccnc3c21"
reported_measurement = "56.5 to 57.5 °C"

[[record]]
molecule = "NCCON=C(CCCCCCNC(=NS(=O)(=O)c1ccc(Cl)cc1)N1CC(c2ccccc2)C(c2ccc(Cl)cc2)=N1)c1ccc(C(F)(F)F)cc1 (centres undefined)"
reported_measurement = "53 to 58 °C"

[[record]]
molecule = "NC(=N[N+](=O)[O-])NCCC[C@@H](NC(=O)C(c1ccccc1)c1ccccc1)C(=O)NCc1ccc(COC(=O)Oc2ccccc2)cc1"
reported_measurement = "186 to 187 °C"

[[record]]
molecule = "Nc1ccc(C(=O)N2CCCC(=O)c3sccc32)cc1"
reported_measurement = "216 to 218 °C"


GET /values?readout=melting point&item= CCCCCCCCCCCC(=O)N[C@H]1CCCNC(=O)C1
93 to 94 °C
